Catalogue of binders with associated pIC50
- assayed.target: T1, human soluble αvβ5 protein (extracellular domains of human αv and β5 integrin subunits) (human, UniProt P06756 31-992; P18084 24-719)
- T1 construct: also called biotin-αvβ5; hsαvβ5
- T1 sequence (P06756 31-992 limits assumed, chain 1 of 2): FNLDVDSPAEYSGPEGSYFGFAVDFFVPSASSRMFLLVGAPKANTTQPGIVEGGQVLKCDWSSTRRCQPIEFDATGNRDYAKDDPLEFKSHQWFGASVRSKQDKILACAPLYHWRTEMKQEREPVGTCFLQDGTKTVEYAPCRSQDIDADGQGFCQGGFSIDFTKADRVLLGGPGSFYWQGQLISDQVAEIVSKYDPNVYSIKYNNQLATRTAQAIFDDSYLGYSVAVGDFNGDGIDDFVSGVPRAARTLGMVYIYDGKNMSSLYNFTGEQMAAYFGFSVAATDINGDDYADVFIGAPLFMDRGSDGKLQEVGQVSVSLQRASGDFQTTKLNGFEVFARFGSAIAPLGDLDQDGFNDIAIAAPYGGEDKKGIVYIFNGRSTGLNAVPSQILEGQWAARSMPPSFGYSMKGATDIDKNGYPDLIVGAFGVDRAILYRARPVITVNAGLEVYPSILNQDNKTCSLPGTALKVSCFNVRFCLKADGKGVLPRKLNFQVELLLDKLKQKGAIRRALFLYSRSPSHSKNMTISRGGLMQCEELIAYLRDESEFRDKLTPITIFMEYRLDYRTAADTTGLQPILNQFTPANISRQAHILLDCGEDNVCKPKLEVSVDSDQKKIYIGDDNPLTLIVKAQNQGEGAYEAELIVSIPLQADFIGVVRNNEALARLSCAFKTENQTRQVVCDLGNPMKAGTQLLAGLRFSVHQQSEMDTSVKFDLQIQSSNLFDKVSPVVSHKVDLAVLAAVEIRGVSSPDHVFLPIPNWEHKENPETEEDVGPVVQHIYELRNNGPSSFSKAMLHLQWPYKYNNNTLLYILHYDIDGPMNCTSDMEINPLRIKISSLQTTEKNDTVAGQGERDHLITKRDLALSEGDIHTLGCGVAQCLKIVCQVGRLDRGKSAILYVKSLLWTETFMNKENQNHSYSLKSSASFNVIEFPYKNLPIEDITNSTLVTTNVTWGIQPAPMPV
- T1 sequence (P18084 24-719 limits assumed, chain 2 of 2): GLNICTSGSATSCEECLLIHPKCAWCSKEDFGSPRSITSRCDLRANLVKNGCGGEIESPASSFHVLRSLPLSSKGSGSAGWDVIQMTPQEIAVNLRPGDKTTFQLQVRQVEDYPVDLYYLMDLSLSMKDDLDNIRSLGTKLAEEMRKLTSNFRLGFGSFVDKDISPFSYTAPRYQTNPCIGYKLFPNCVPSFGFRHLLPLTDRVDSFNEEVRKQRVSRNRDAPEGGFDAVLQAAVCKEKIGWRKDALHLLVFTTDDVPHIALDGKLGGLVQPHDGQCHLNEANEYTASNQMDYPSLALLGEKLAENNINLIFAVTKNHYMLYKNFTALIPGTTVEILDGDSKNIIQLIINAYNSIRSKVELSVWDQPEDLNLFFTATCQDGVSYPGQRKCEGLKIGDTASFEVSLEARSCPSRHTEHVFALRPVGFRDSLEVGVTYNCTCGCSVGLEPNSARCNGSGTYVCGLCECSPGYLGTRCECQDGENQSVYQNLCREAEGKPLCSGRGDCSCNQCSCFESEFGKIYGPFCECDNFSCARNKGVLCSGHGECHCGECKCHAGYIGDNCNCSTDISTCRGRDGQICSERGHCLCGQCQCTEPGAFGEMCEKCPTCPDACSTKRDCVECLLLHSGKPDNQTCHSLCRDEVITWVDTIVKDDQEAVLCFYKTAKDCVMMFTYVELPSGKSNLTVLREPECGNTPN
- experimental.protocol: ALULA competition ELISA on soluble human αvβ5
# reply with the number alone; pIC50 is -log10 of concentration in mol/L

// below: answered binders
- binder: "VH5/VL2 Agly-IgG4.P (S228P)/IgG1 (N297Q) (antibody, V domains shown, also called VH5/VL2 (Agly-IgG4P/G1); H5/L2) VH: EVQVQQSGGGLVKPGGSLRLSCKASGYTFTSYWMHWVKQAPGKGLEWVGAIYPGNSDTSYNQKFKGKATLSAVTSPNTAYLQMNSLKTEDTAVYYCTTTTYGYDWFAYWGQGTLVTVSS VL: NIQMTQSPSSLSASVGDRVTMSCKSSQSVLYSSNQKNYLAWYQQKPGKSPKLLIYWASTRESGVPDRFTGSGSGTDFTLTISSLQPEDFATYYCHQYLSSLTFGQGTKLEIKR"
  measurement: 8.73
- binder: "VH2/VL2 Agly-IgG4.P (S228P)/IgG1 (N297Q) (antibody, V domains shown, also called VH2/VL2 (Agly-IgG4P/G1); H2/L2) VH: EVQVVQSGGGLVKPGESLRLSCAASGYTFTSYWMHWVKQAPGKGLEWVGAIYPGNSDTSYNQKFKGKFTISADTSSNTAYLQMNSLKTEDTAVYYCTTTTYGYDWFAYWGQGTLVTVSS VL: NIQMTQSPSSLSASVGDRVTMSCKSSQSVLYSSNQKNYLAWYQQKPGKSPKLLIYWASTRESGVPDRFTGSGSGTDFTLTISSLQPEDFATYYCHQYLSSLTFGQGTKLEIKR"
  measurement: 8.58
- binder: "VH4/VL0 Agly-IgG4.P (S228P)/IgG1 (N297Q) (antibody, V domains shown, also called VH4/VL0 (Agly-IgG4P/G1); H4/L0) VH: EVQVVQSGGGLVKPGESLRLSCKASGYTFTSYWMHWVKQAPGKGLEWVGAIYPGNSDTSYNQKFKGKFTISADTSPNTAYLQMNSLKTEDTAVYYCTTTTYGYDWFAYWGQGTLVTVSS VL: DIQMTQSPSSVSASVGDRVTITCKSSQSVLYSSNQKNYLAWYQQKPGKAPKLLIYWASTRESGVPSRFSGSGSGTDFTLTISSLQPEDFATYYCHQYLSSLTFGQGTKVEIKR"
  measurement: 8.74

// below: pIC50 requested for another binder
### Prompt Returns the measured pIC50 for the input binder. Input: ALULA-H4/L2-IgG4.P(S228P)/IgG1(N297Q) (antibody, V domains shown, Hybrid aglycosylated IgG4.P (S228P)/IgG1 (N297Q) heavy chain, human kappa light chain; also called VH4/VL2 (Agly-IgG4P/G1); H4/L2 antibody) VH: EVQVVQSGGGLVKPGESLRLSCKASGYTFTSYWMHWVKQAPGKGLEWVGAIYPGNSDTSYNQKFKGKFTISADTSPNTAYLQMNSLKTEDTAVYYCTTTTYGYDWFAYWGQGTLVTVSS VL: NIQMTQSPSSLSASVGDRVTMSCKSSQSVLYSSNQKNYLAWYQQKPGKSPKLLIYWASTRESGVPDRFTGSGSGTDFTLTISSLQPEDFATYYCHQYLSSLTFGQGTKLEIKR
### Response 8.74

Origin of the recorded values: patent US20170362324A1
